# Tested on: advanced glycation end products (AGEs) formation, BSA-methylglyoxal model
# assay-explanation: AGEs formation inhibition, BSA-methylglyoxal assay
# Assay type: biochemical
# measurement-context: AGEs fluorescence, 72 h, 37 °C; read-out: BSA-Methylglyoxal Model IC50 (Mean ± SE)
# Description: The isolated compounds were prepared at final concentrations of 500 µM in DMSO in the BSA-fructose assay, and 1000 µM in all other AGEs assays. Compounds that exceeded 50% inhibition at this concentration were serially diluted to determine their IC50. All tests were conducted using quercetin (positive control). AGEs inhibitory activity of the isolated compounds was determined according to the reported procedures with slight modification. […]
Reported pIC50 by item:
Lab note: report pIC50 as minus log10 of the concentration in molar units, number only.

Below, 3 compounds whose answers are already recorded.
compound="O=c1c(O)c(-c2ccc(O)c(O)c2)oc2cc(O)cc(O)c12 [Quercetin, quercetin, reference compound]" experimental_target="advanced glycation end products (AGEs) formation, BSA-methylglyoxal model" value_kind=pIC50 readout_value=3.03
compound="O=c1cc(-c2ccc(O)cc2)oc2cc(O[C@@H]3O[C@H](CO)[C@@H](O)[C@H](O)[C@H]3O)cc(O)c12 [Compound 1, apeginin-7-O-β-D-glucoside]" experimental_target="advanced glycation end products (AGEs) formation, BSA-methylglyoxal model" value_kind=pIC50 readout_value=3.18
compound="C[C@@H]1O[C@@H](OC[C@H]2O[C@@H](Oc3c(-c4ccc(O)c(O)c4)oc4cc(O)cc(O)c4c3=O)[C@H](O)[C@@H](O)[C@@H]2O)[C@H](O)[C@H](O)[C@H]1O [Compound 4, rutin]" experimental_target="advanced glycation end products (AGEs) formation, BSA-methylglyoxal model" value_kind=pIC50 readout_value=3.31

pIC50 reported for this compound O=C(O)[C@H]1O[C@@H](Oc2c(-c3ccc(O)c(O)c3)oc3cc(O)cc(O)c3c2=O)[C@H](O)[C@@H](O)[C@@H]1O [Compound 2, quercetin-3-O-β-D-glucuronic acid] : 2.73

Form: compound = O=C(OC[C@H]1O[C@H](OC(=O)c2cc(O)c(O)c(O)c2)[C@H](O)[C@@H](OC(=O)c2cc(O)c(O)c(O)c2)[C@@H]1O)c1cc(O)c(O)c(O)c1 (stereo in doubt) [Compound 5, 1,3,6-trigalloyl glucose] ; pIC50 = 3.18

====

# System: advanced glycation end products (AGEs) formation, arginine-methylglyoxal model
# assay-explanation: AGEs formation inhibition, arginine-methylglyoxal assay
# Type: biochemical
# measurement-context: AGEs fluorescence, 72 h, 37 °C; read-out: Arginine-Methylglyoxal Model IC50 (Mean ± SE)
Below: a set of entries, each annotated with reported IC50.
Give your result in µM as a bare value.

Recorded result, O=c1cc(-c2ccc(O)cc2)oc2cc(O[C@@H]3O[C@H](CO)[C@@H](O)[C@H](O)[C@H]3O)cc(O)c12 [Compound 1, apeginin-7-O-β-D-glucoside] , IC50: 474

====

# experimental-target: α-Glucosidase from Saccharomyces cerevisiae (Saccharomyces cerevisiae, UniProt P53341)
# Construct: purchased Sigma-Aldrich G003
# Sequence (P53341 whole entry): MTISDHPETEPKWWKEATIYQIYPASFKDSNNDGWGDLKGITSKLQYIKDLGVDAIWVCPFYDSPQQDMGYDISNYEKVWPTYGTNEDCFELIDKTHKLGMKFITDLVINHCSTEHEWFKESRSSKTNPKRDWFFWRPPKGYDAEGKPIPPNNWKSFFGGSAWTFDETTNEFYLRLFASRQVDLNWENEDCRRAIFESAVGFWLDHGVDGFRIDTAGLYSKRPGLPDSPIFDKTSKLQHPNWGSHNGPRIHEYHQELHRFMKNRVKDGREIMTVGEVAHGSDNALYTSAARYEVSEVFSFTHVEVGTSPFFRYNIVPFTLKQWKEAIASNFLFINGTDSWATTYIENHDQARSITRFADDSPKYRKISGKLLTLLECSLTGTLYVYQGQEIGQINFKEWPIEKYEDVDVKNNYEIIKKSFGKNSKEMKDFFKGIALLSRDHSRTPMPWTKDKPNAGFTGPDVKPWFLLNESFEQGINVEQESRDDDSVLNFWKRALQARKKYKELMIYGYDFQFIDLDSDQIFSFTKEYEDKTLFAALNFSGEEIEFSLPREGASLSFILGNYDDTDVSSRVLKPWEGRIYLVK
# assay-explanation: α-Glucosidase inhibition (pNPG colorimetric)
# Type: biochemical
value-kind: pIC50
Remember, pIC50 is on a log scale: it is -log10 of the molar concentration.

compound=C[C@@H]1O[C@@H](OC[C@H]2O[C@@H](Oc3c(-c4ccc(O)c(O)c4)oc4cc(O)cc(O)c4c3=O)[C@H](O)[C@@H](O)[C@@H]2O)[C@H](O)[C@H](O)[C@H]1O value_kind=pIC50 readout_value=3.12

The measured pIC50 that O=c1cc(-c2ccc(O)cc2)oc2cc(O[C@@H]3O[C@H](CO)[C@@H](O)[C@H](O)[C@H]3O)cc(O)c12 [Compound 1, apeginin-7-O-β-D-glucoside] showed for α-Glucosidase from Saccharomyces cerevisiae (Saccharomyces cerevisiae, UniProt P53341) is 3.39

====

ABTS values, listed per item
# assay-explanation: ABTS assay
# measurement-context: ascorbic acid equivalents; mean ± SD, n = 3
Quick reminder: number only, in mM AAE/mg, skip the unit.

// solved cases for ABTS follow
compound="O=c1cc(-c2ccc(O)cc2)oc2cc(O[C@@H]3O[C@H](CO)[C@@H](O)[C@H](O)[C@H]3O)cc(O)c12 [Compound 1, apeginin-7-O-β-D-glucoside]" readout_value=0.702
compound=O=C(O)[C@H]1O[C@@H](Oc2c(-c3ccc(O)c(O)c3)oc3cc(O)cc(O)c3c2=O)[C@H](O)[C@@H](O)[C@H]1O readout_value=0.210
compound=C[C@@H]1O[C@@H](OC[C@H]2O[C@@H](Oc3c(-c4ccc(O)c(O)c4)oc4cc(O)cc(O)c4c3=O)[C@H](O)[C@@H](O)[C@@H]2O)[C@H](O)[C@H](O)[C@H]1O readout_value=1.972
compound="O=C(OC[C@H]1O[C@H](OC(=O)c2cc(O)c(O)c(O)c2)[C@H](O)[C@@H](OC(=O)c2cc(O)c(O)c(O)c2)[C@@H]1O)c1cc(O)c(O)c(O)c1 (stereo in doubt)" readout_value=9.640

Note: attention shifts to another entry.
What the record says about "O=C(O)[C@H]1O[C@@H](Oc2c(-c3ccc(O)c(O)c3)oc3cc(O)cc(O)c3c2=O)[C@H](O)[C@@H](O)[C@@H]1O" : ABTS is 0.646

====

# Test system: advanced glycation end products (AGEs) formation, BSA-fructose model
# assay-explanation: AGEs formation inhibition, BSA-fructose assay
# Format: biochemical
# measurement-context: AGEs fluorescence, 72 h, 37 °C; read-out: BSA-Fructose Model IC50 (Mean ± SE)
Mark 1 only when IC50 stays strictly below 60 µM. Values equal to the cut-off are -1.

Some entries whose results are on file:
compound=O=C(O)[C@H]1O[C@@H](Oc2c(-c3ccc(O)c(O)c3)oc3cc(O)cc(O)c3c2=O)[C@H](O)[C@@H](O)[C@H]1O label_value=-1
compound="O=C(OC[C@H]1O[C@H](OC(=O)c2cc(O)c(O)c(O)c2)[C@H](O)[C@@H](OC(=O)c2cc(O)c(O)c(O)c2)[C@@H]1O)c1cc(O)c(O)c(O)c1 (stereo in doubt)" label_value=1
compound="O=c1c(O)c(-c2ccc(O)c(O)c2)oc2cc(O)cc(O)c12 [Quercetin, quercetin, reference compound]" label_value=-1
compound="O=c1cc(-c2ccc(O)cc2)oc2cc(O[C@@H]3O[C@H](CO)[C@@H](O)[C@H](O)[C@H]3O)cc(O)c12 [Compound 1, apeginin-7-O-β-D-glucoside]" label_value=-1
compound=C[C@@H]1O[C@@H](OC[C@H]2O[C@@H](Oc3c(-c4ccc(O)c(O)c4)oc4cc(O)cc(O)c4c3=O)[C@H](O)[C@@H](O)[C@@H]2O)[C@H](O)[C@H](O)[C@H]1O label_value=1

Quick check: does "O=C(O)[C@H]1O[C@@H](Oc2c(-c3ccc(O)c(O)c3)oc3cc(O)cc(O)c3c2=O)[C@H](O)[C@@H](O)[C@@H]1O" have IC50 under 60 µM?
-1

====

pIC50 for assorted molecules
# System: advanced glycation end products (AGEs) formation, arginine-methylglyoxal model
# assay-explanation: AGEs formation inhibition, arginine-methylglyoxal assay
# Assay type: biochemical
# measurement-context: AGEs fluorescence, 72 h, 37 °C; read-out: Arginine-Methylglyoxal Model IC50 (Mean ± SE)
# pIC50: negative log10 of molar concentration; output just the value

pIC50 reported for this molecule O=C(OC[C@H]1O[C@H](OC(=O)c2cc(O)c(O)c(O)c2)[C@H](O)[C@@H](OC(=O)c2cc(O)c(O)c(O)c2)[C@@H]1O)c1cc(O)c(O)c(O)c1 (stereo in doubt) : 3.65

The recorded pIC50 for entry O=c1c(O)c(-c2ccc(O)c(O)c2)oc2cc(O)cc(O)c12 [Quercetin, quercetin, reference compound] equals 3.27

Recorded result, "O=C(O)[C@H]1O[C@@H](Oc2c(-c3ccc(O)c(O)c3)oc3cc(O)cc(O)c3c2=O)[C@H](O)[C@@H](O)[C@@H]1O" , pIC50: 2.94

// pIC50 lookup, molecule = "C[C@@H]1O[C@@H](OC[C@H]2O[C@@H](Oc3c(-c4ccc(O)c(O)c4)oc4cc(O)cc(O)c4c3=O)[C@H](O)[C@@H](O)[C@@H]2O)[C@H](O)[C@H](O)[C@H]1O" , result: 3.52
